Target: Recombinant human IL-1β (BioLegend 579404) (human, UniProt P01584 117-269)
Experiment: cell-based or functional assay
Non-standard residues stand in square brackets, D forms with d. dPro(4R-(4-pyridylmethyl)) = O=C(O)[C@H]1C[C@@H](Cc2ccncc2)CN1; dPro(3S-(4-Br-benzyl)) = O=C(O)[C@@H]1NCC[C@@H]1Cc1ccc(Br)cc1; Trp(βS-Me,4-F) = C[C@@H](c1c[nH]c2cccc(F)c12)[C@H](N)C(=O)O; Bip(4'-COOH) = N[C@@H](Cc1ccc(-c2ccc(C(=O)O)cc2)cc1)C(=O)O; dPro(4R-Bzl(4-F)) = O=C(O)[C@H]1C[C@@H](Cc2ccc(F)cc2)CN1; Ala(pyrimidin-5-yl) = N[C@@H](Cc1cncnc1)C(=O)O; Phe(4-COOH) = N[C@@H](Cc1ccc(C(=O)O)cc1)C(=O)O; Pro(cis-4-F) = O=C(O)[C@@H]1C[C@H](F)CN1; cisHyp = O=C(O)[C@@H]1C[C@H](O)CN1; 4Pal = N[C@@H](Cc1ccncc1)C(=O)O; αMeD = C[C@](N)(CC(=O)O)C(=O)O; αMeK = C[C@](N)(CCCCN)C(=O)O; Orn = NCCC[C@H](N)C(=O)O; Dab = NCC[C@H](N)C(=O)O; Aib = CC(C)(N)C(=O)O; Sar = CNCC(=O)O
Quick list: MRC5 IC50 per entry.
Numeric only. Scale: nM

Guide cases for MRC5 IC50, answers given:
Form field MRC5 IC50, entry cyclo([Bip(4'-COOH)][4Pal][Phe(4-COOH)]G[Pro(cis-4-F)][Trp(βS-Me,4-F)][Aib]EW[αMeK][Ala(pyrimidin-5-yl)]Q[Dab][Sar][dPro(4R-Bzl(4-F))]) (ring closure inferred; not fully specified (bridges); printed as Bip4CO2H-4Pal-Phe4COOH-G-Proc4F-SbMeW4F-Aib-E-W-aMeK-PyrimAla-Q-Dab-Sar-dProc4Bn4F) [SEQ ID NO: 132] : 0.015

MRC5 IC50 reported for this binder cyclo([Bip(4'-COOH)][4Pal][Phe(4-COOH)]G[cisHyp][Trp(βS-Me,4-F)][Aib]SW[αMeD][Ala(pyrimidin-5-yl)]Q[Dab][Sar][dPro(4R-(4-pyridylmethyl))]) (ring closure inferred; not fully specified (bridges); printed as Bip4CO2H-4Pal-Phe4COOH-G-Proc4OH-SbMeW4F-Aib-S-W-aMeD-PyrimAla-Q-Dab-Sar-dProc4CH24Pal, cyclic (macrolactam)) [SEQ ID NO: 209] : 0.034

Let us move to another entry and its MRC5 IC50.
The reported MRC5 IC50 of the binder cyclo([Bip(4'-COOH)][4Pal][Phe(4-COOH)]G[Pro(cis-4-F)][Trp(βS-Me,4-F)][Aib]EW[Aib][Ala(pyrimidin-5-yl)]Q[Orn]G[dPro(3S-(4-Br-benzyl))]) (ring closure inferred) [SEQ ID NO: 151] was 0.022
